Recorded IC50 by entry
target-entity: SARS-COV-2 3CLpro/Mpro protease (Severe acute respiratory syndrome coronavirus 2 (2019-nCoV) (SARS-CoV-2))
measurement-notes: Inhibitory effect on SARS-COV-2 3CLpro/Mpro protease by fluorescence resonance energy transfer
Format: biochemical
measurement-context: activity intervals A-D, read-out: IC50 (nM), Inhibition on SARS-CoV-2 3CLpro/Mpro protease

// below: answered compounds
compound	reported-value
CNc1cncc(C(=O)N2CCC[C@@H](Nc3c(C(=O)N4CCC5(CC4)COC5)cc(Br)cc3[N+](=O)[O-])C2)c1	10 to 50 nM
COCCN1CCN(C(=O)c2cc(Br)cc([N+](=O)[O-])c2N[C@H]2CN(C(=O)c3cncc(Br)c3)CC2(C)O)CC1 (stereo partly drawn)	10 to 50 nM
CNc1cncc(C(=O)N[C@H]2CCOC[C@H]2Nc2c(C(=O)N3CCCCC3)cc(Br)cc2[N+](=O)[O-])c1	10 to 50 nM
CNc1cncc(C(=O)N2CCC[C@@H](Nc3c(C(=O)N4CCO[C@@H](C(F)(F)F)C4)cc(Br)cc3[N+](=O)[O-])C2)c1	10 to 50 nM
O=C(c1cncc(I)c1)N1CC(Nc2c(C(=O)N3CCCCC3)cc(Br)cc2[N+](=O)[O-])C(F)(F)C1 (stereo not drawn)	10 to 50 nM

Query compound follows.
Look up IC50: CNc1cncc(C(=O)N2C[C@H](Nc3c(C(=O)N4C[C@@H](C)O[C@@H](C)C4)cc(Br)cc3[N+](=O)[O-])C[C@H]2C(=O)Nc2ccc3c(cnn3C)c2Cl)c1
50 to 100 nM
